# reported kon; entries follow
- targetOrSystem: T1, hVISTA-ECD 6-His tag (human, UniProt Q9H7M9 33-193)
- T1 construct: also called monovalent hVISTA-ECD; human VISTA
- T1 sequence (Q9H7M9 other isoform, or with tags, fused parts or gaps limits assumed): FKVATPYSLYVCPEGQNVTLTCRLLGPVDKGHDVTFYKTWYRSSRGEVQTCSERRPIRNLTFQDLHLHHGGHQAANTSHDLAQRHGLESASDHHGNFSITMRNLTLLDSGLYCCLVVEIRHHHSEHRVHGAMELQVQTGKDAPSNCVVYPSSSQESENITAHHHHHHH
- assayProcedure: SPR, Ab on Protein A, hVISTA analyte, pH 6.0
A number alone suffices; assume M⁻¹ s⁻¹.

Here are 3 binders together with their reported answers.
P1-061520 (41F11 VK_A64G) (antibody, V domains shown, also called P1-061520-21; VISTA.4.A64G) VH: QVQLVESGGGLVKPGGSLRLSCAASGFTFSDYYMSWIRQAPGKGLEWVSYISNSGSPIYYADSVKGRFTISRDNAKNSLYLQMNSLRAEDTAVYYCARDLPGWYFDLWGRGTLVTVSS VL: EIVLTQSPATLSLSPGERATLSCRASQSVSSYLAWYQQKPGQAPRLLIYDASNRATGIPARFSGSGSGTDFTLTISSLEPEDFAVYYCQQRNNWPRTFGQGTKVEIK : 1.93e+06
P1-068744 (antibody, human IgG1, kappa, V domains shown, also called P1-068744-7) VH: QVQLVESGGGVVQPGRSLRLSCAASGFTFSEYAMHWVRQAPGKGLEWVAHIWYDGSNKYEADSVKGRFTISRDNSKNTLYLQMNSLRAEDTAVYYCARDSGFYESYYFDEWGQGTLVTVSS VL: EIVLTQSPATLSLSPGERATLSCRASQSVSSSYLAWYQQKPGQAPRLLIYDASNRATGIPARFSGSGSGTDFTLTISSLEPEDFATYYCQQYNSYPYTFGQGTKLEIKR : 860000
P1-068748 (antibody, human IgG1, kappa, V domains shown, also called P1-068748-6) VH: QVQLVESGGGVVQPGRSLRLSCAASGFTFSHHAMHWVRQAPGKGLEWVAIIWYDGSNDDYADSVKGRFTISRDNSKNTLYLQMNSLRAEDTAVYYCARDSGFYDSYYFDYWGQGTLVTVSS VL: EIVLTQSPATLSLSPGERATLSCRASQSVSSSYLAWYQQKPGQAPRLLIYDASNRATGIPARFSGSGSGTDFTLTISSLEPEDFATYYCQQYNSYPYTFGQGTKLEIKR : 840000

Consider the binder P1-070976 (41F11_VH_T28P_Y50W_S55E_D95H_L96E_P97E_Y100E; Vk_A64G) (antibody, V domains shown, They look like Kabat positions on the mature VH, but no numbering scheme is stated; also called P1-070976-11) VH: QVQLVESGGGLVKPGGSLRLSCAASGFPFSDYYMSWIRQAPGKGLEWVSWISNSGEPIYYADSVKGRFTISRDNAKNSLYLQMNSLRAEDTAVYYCARHEEGWEFDLWGRGTLVTVSS VL: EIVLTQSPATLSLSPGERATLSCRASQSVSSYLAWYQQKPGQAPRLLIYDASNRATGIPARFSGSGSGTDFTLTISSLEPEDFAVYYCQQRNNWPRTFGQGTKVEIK . State its measured kon. 240000
